Answer each item with its documented % degradation in 24 h when incubated with simulated intestinal fluid.
method: Stability in simulated intestinal fluid
Type: in vitro ADME
details: 2 μM, 37° C., 24 h, pH 7.5
Numbers only, in %.

CCc1cc(OC)ccc1-c1ccc(CC(NC(=O)[C@H](CC(=O)O)NC(=O)[C@H](CO)NC(=O)[C@@H](NC(=O)C(C)(Cc2ccccc2F)NC(=O)[C@@H](NC(=O)CNC(=O)[C@H](CCC(N)=O)NC(=O)[C@H](CO)NC(=O)[C@@H](N)Cc2c[nH]cn2)[C@@H](C)O)[C@@H](C)O)C(=O)NC(Cc2ccc(-c3ccccc3F)cc2)C(N)=O)cc1 (single isomer, unassigned) [compound 23] | 50

% degradation in 24 h when incubated with simulated intestinal fluid recorded for this molecule, CCc1cc(OC)ccc1-c1ccc(CC(NC(=O)[C@H](CC(=O)O)NC(=O)[C@H](CO)NC(=O)[C@@H](NC(=O)C(C)(Cc2ccccc2F)NC(=O)[C@@H](NC(=O)CNC(=O)[C@H](CCC(N)=O)NC(=O)[C@H](C)NC(=O)[C@@H](N)Cc2c[nH]cn2)[C@@H](C)O)[C@@H](C)O)C(=O)NC(Cc2ccc(-c3ccccc3C)nc2)C(N)=O)cc1 (single isomer, unassigned) [compound 26] , is 40
